Biological target: SIRT1 (Homo sapiens)
Sequence (Q96EB6 whole entry): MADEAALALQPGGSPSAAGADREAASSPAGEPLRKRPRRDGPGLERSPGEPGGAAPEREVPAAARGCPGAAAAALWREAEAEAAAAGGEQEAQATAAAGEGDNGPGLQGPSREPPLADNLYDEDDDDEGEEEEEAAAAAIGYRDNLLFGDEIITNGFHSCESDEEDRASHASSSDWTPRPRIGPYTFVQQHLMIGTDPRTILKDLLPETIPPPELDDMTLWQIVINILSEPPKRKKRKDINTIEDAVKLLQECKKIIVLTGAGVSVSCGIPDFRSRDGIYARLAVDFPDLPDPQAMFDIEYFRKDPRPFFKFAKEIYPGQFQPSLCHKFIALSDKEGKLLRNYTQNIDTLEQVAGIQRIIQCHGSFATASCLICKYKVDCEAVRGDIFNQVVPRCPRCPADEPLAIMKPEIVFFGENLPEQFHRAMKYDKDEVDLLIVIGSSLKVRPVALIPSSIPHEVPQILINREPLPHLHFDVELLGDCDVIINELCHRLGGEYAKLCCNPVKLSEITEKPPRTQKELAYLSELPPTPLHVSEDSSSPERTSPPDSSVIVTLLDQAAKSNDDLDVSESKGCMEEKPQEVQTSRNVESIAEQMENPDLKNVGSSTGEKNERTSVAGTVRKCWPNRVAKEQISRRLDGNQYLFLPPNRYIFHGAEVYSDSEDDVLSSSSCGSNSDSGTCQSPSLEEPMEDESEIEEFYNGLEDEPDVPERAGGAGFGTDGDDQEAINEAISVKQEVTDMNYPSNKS
Test: TAMRA based mass spectrometry assay of SIRT1 activity
Type: biochemical
Conditions: concentration of test compound giving 150% activation of SIRT1; TAMRA peptide substrate
property measured: TAMRA EC1.5 (μM)

[
  {
    "compound": "O=C(Nc1nc(CN2CCOCC2)cs1)c1cnc2ccc(-c3cccc(F)c3F)nn12 [Compound 48]",
    "TAMRA EC1.5 (μM)": "B (EC1.5 1-25 μM)"
  },
  {
    "compound": "O=C(Nc1cccnc1)c1cnc2ccc(-c3ccccc3Cl)nn12 [Compound 118]",
    "TAMRA EC1.5 (μM)": "B (EC1.5 1-25 μM)"
  },
  {
    "compound": "O=C(Nc1cncnc1)c1cnc2ccc(-c3ccccc3C(F)(F)F)nn12 [Compound 106]",
    "TAMRA EC1.5 (μM)": "B (EC1.5 1-25 μM)"
  },
  {
    "compound": "O=C(Nc1cccc(N2CCOCC2)n1)c1cnc2ccc(-c3cncc(C(F)F)c3)nn12 [Compound 60]",
    "TAMRA EC1.5 (μM)": "A (EC1.5<1 μM)"
  },
  {
    "compound": "O=C(Nc1ccccn1)c1cnc2ccc(-c3ccccc3Cl)nn12 [Compound 117]",
    "TAMRA EC1.5 (μM)": "B (EC1.5 1-25 μM)"
  }
]

Task item: I would be grateful if you could share the reported TAMRA EC1.5 (μM) for O=C(Nc1ccnc(N2CCCC2)c1)c1cnc2ccc(-c3ccccc3C(F)(F)F)nn12 [Compound 25] .
Reply: A (EC1.5<1 μM)

Task item: Next compound up: O=C(Nc1cccnc1)c1cnc2ccc(-c3ccccc3C(F)(F)F)nn12 [Compound 108]
Reply: B (EC1.5 1-25 μM)

Task item: Next compound up: O=C(Nc1cccc(CN2CCOCC2)n1)c1cnc2ccc(-c3ccccc3F)nn12 [Compound 135]
Reply: A (EC1.5<1 μM)
